Attribution: paper PMC12281475

Biological target: CDK2_CycD1 (Homo sapiens, UniProt P24941)
Construct: purchased Reaction Biology
Test: Radiometric protein kinase assay (33PanQinase), CDK2_CycD1
Type: biochemical
property name: IC50 (µM)
Give just the numeric value; µM need not be written.

Query (compound): Cc1n[nH]c2ncc(C(=O)N3CCC[C@H]3c3ccc(Cl)cc3)cc12 ; field requested: IC50
9.73

====

Biological target: CDK3_CycC (Homo sapiens, UniProt Q00526)
Construct: purchased Reaction Biology
Sequence (Q00526 whole entry): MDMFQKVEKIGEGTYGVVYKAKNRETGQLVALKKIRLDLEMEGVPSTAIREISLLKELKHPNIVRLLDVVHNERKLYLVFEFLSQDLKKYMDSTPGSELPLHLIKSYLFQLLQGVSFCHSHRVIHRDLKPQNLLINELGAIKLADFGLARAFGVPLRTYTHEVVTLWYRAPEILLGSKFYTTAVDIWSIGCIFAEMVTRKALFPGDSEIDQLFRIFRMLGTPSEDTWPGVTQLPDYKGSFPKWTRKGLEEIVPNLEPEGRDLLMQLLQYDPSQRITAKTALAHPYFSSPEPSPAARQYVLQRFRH
Sequence (P24863 whole entry partner): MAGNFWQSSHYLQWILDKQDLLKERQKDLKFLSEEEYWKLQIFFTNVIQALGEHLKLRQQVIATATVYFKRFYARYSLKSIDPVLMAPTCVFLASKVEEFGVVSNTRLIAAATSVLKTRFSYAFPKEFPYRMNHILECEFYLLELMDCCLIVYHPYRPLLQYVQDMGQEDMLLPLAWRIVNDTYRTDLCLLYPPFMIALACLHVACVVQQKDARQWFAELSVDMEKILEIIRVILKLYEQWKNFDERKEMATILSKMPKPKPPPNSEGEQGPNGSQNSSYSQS
Test: Radiometric protein kinase assay (33PanQinase), CDK3_CycC
Assay type: biochemical
Conditions: slope of the IC50 fit
# Lookup of reported Hill Slope keyed by entry
// no unit string in output, number only

In the examples that follow, each entry is paired with its recorded Hill Slope.
molecule: Cn1ncc2cc(-c3cnc(N)c(Cl)c3N3CCC4(CCNC4=O)CC3)ccc21
value: -0.55

molecule: CN1CCN(C(=O)c2ccc3cc(CCNc4ncnc5ccc(C#N)cc45)ccc3c2)CC1 [Senexin B, reference compound]
value: -0.01

molecule: Cc1c(Br)c(Br)c2c3c1nc(N1CCNCC1)n3CCC2.Cl [SEL120-34A, reference compound]
value: -0.87

molecule: Cc1n[nH]c2ncc(C(=O)N3CCC[C@H]3c3ccc(Cl)cc3)cc12
value: -0.76

Could you now consider this next molecule?
Form entry - test system: CDK3_CycC (Homo sapiens, UniProt Q00526); read-out: Hill Slope; molecule: Cn1cc(-c2ccc(-c3cncc(Cl)c3N3CCC4(CCNC4=O)CC3)cc2)cn1
-0.47
